The measured values listed here are drawn from paper PMC5114727.

TEST_SYSTEM: early stage gametocytes (stage I to IIb/III) of P. falciparum line NF54^Pfs16
PROTOCOL_NOTES: Gametocyte luciferase assay, early stage
Assay type: cell-based, Plasmodium falciparum
CONDITION_SUMMARY: highest concentration 40 μM; read-out: Early stage gametocyte IC50 ± SEM
// values below are reported IC50
Write down the numeric answer in µM and omit the unit.

Solved entries (count: 3):
COMPOUND	READOUT_NAME	MEASUREMENT
OC1CCCCC1C1(NC(=S)Nc2ccccc2)CCCCC1 (stereo not shown)	IC50	7.54
COc1ccc2c(=O)cc(C(Cl)(Cl)Cl)oc2c1	IC50	0.44
CC(=O)C1=C(c2ccccc2)C(=O)c2ccccc2C1=O	IC50	2.88

Incoming: Please give the measured IC50 for this compound: CC(=O)c1ccc2c3c(onc13)-c1ccccc1C2=O
Outgoing: 0.25

* * *

# reported IC50; entries follow
Tested on: T. cruzi amastigotes
PROTOCOL_NOTES: T. cruzi amastigote image-based assay in 3T3 host cells
Assay type: cell-based, Trypanosoma cruzi
CONDITION_SUMMARY: in 3T3 host cells; read-out: T. cruzi amastigote IC50 ± SEM
Method: The next step taken was to determine whether the activity of the compounds was confined to P. falciparum, or whether it extended to other protozoan parasites. Compound activity against two members of another clinically important group of parasites, the kinetoplastids T. cruzi and T. b. brucei was determined. The sensitive high content imaging assay used to determine compound activity against T. cruzi assesses the intracellular amastigote life form of the parasite in the 3T3 host cell. […]
Respond numerically; units are µM and should not be typed.

MOLECULE_SMILES	UNIT_OF_MEASURE	IC50
CC(=O)c1ccc2c3c(onc13)-c1ccccc1C2=O	µM	13.3

Okay, now this compound:
Incoming: Which IC50 reading was recorded for the compound CC(=O)C1=C(c2ccccc2)C(=O)c2ccccc2C1=O ?
Outgoing: 4.3

* * *

System: T. cruzi trypomastigotes
PROTOCOL_NOTES: T. cruzi trypomastigote PrestoBlue assay
Type: cell-based, Trypanosoma cruzi
CONDITION_SUMMARY: highest concentration 40 μM; read-out: T. cruzi trypomastigote IC50 ± SEM
READOUT_NAME: pIC50
Lab note — pIC50 values are minus log10 of concentrations in M.

Incoming: Missing value: pIC50, T. cruzi trypomastigotes, entry OC1CCCCC1C1(NC(=S)Nc2ccccc2)CCCCC1 (stereo not shown) . Fill in?
Outgoing: 5.35

* * *

System: MDA-MB-231 cells
PROTOCOL_NOTES: Resazurin cytotoxicity assay, MDA-MB-231
Type: cell-based, human
CONDITION_SUMMARY: highest concentration 40 μM; bound = highest concentration with < 50 % inhibition; read-out: MDA-MB-231 cytotoxicity IC50 ± SEM
Experimental: An initial indication of compound selectivity over human cells had previously been obtained through comparison of the compounds’ IC50 values against P. falciparum asexual stages and HEK293 [22]. […] Cytotoxicity of the compounds was assessed against a panel of human cancer cell lines, namely the estrogen receptor (ER)-positive breast cancer cell line MCF7, the ER-negative MDA-MB-231 and the prostate cancer line PC-3. […]
IC50: recorded values

# count of solved cases: 3
COMPOUND	TEST_SYSTEM	IC50
OC1CCCCC1C1(NC(=S)Nc2ccccc2)CCCCC1 (centres unmarked) [MMV665980]	MDA-MB-231 cells	> 40 µM
CC(=O)c1ccc2c3c(onc13)-c1ccccc1C2=O [Amb3377585]	MDA-MB-231 cells	5.6 µM
CC1=CC(=O)C(C(C)C)=C/C1=N/OS(=O)(=O)c1ccccc1 [STK 740987]	MDA-MB-231 cells	> 40 µM

Incoming: Request the reported IC50 associated with Cc1csc(Sc2ncnc3sccc23)n1 [Amb180780]
Outgoing: > 40 µM

Incoming: I am curious: what IC50 value has been reported for CC(=O)C1=C(c2ccccc2)C(=O)c2ccccc2C1=O [Amb4317088] ?
Outgoing: 0.87 µM

* * *

IC50 reference
System: P. falciparum developmental stages
PROTOCOL_NOTES: Activity across all P. falciparum life-cycle stages tested (asexual, early and late gametocytes)
Format: cell-based, Plasmodium falciparum
CONDITION_SUMMARY: early and late stage gametocytes, read-out: IC50 range across all P. falciparum life-cycle stages tested

MOLECULE_SMILES	IC50
CC1=CC(=O)C(C(C)C)=C/C1=N/OS(=O)(=O)c1ccccc1	380 to 460 nM

Incoming: So what does the record say about IC50 for Cc1csc(Sc2ncnc3sccc23)n1 ?
Outgoing: 60 to 120 nM

* * *

TEST_SYSTEM: late stage gametocytes (stage IV to V) of P. falciparum line NF54^Pfs16
PROTOCOL_NOTES: Gametocyte luciferase assay, late stage
Format: cell-based, Plasmodium falciparum
CONDITION_SUMMARY: highest concentration 40 μM; read-out: Late stage gametocyte IC50 ± SEM
READOUT_NAME: IC50 (µM)
Respond with the bare value in µM.

COMPOUND	READOUT_NAME	MEASUREMENT
OC1CCCCC1C1(NC(=S)Nc2ccccc2)CCCCC1 (centres unmarked) [MMV665980]	IC50	4.15

Incoming: Which IC50 reading was recorded for the compound CC(=O)c1ccc2c3c(onc13)-c1ccccc1C2=O [Amb3377585] ?
Outgoing: 6.22

* * *

System: 3T3 cells
PROTOCOL_NOTES: 3T3 host cell cytotoxicity (part of T. cruzi amastigote image-based assay)
Parameters: species or system mouse
CONDITION_SUMMARY: bound = highest concentration with < 50 % inhibition; read-out: 3T3 cytotoxicity IC50 ± SEM
Procedure: An initial indication of compound selectivity over human cells had previously been obtained through comparison of the compounds’ IC50 values against P. falciparum asexual stages and HEK293 [22]. […] Cytotoxicity of the compounds was assessed against a panel of human cancer cell lines, namely the estrogen receptor (ER)-positive breast cancer cell line MCF7, the ER-negative MDA-MB-231 and the prostate cancer line PC-3. […]
The following compounds are listed with their measured IC50 values.

Incoming: Record request: IC50 value, item CCc1ccc(Nc2cc(C)c3ccc(O)cc3n2)cc1.Cl
Outgoing: > 40 µM

Incoming: Entry under review: Cc1csc(Sc2ncnc3sccc23)n1 . Reported IC50?
Outgoing: > 40 µM

Incoming: What value of measured IC50 is listed for OC1CCCCC1C1(NC(=S)Nc2ccccc2)CCCCC1 (centres unmarked) ?
Outgoing: > 40 µM

Incoming: Need IC50 of CC(=O)C1=C(c2ccccc2)C(=O)c2ccccc2C1=O , thanks.
Outgoing: 8.6 µM

Incoming: Entry CC1=CC(=O)C(C(C)C)=C/C1=N/OS(=O)(=O)c1ccccc1 has what IC50?
Outgoing: > 20 µM

* * *

System: panel of human cancer cell lines (MCF7, MDA-MB-231, PC-3)
PROTOCOL_NOTES: Cytotoxicity across the panel of cell lines
Format: cell-based
CONDITION_SUMMARY: MCF7, MDA-MB-231, PC-3; read-out: IC50 range against the cancer cell lines
READOUT_NAME: IC50

Field: example entries. Status: answers known.
COMPOUND	IC50
CC(=O)c1ccc2c3c(onc13)-c1ccccc1C2=O [Amb3377585]	5 to 9 µM
CC(=O)C1=C(c2ccccc2)C(=O)c2ccccc2C1=O [Amb4317088]	0.87 to 4.6 µM

// next entry
Incoming: Can you look up the measured IC50 of COc1ccc2c(=O)cc(C(Cl)(Cl)Cl)oc2c1 [MMV665820] for me?
Outgoing: 0.27 to 0.43 µM

* * *

System: P. falciparum asexual blood stages (PfAS)
PROTOCOL_NOTES: Chemical rescue with CoA pathway intermediates, asexual stages
Type: cell-based, Plasmodium falciparum
CONDITION_SUMMARY: dP-CoA 0.8 mM; inhibitor at IC80
READOUT_NAME: Percent rescue ± SEM by dephospho CoA, PfAS (%)
Quick reminder: number only, in %, skip the unit.

Known Percent rescue ± SEM by dephospho CoA, PfAS results, listed for orientation:
MOLECULE	TEST_SYSTEM	MEASUREMENT
CC(=O)c1ccc2c3c(onc13)-c1ccccc1C2=O [Amb3377585]	P. falciparum asexual blood stages (PfAS)	38.7
CC1=CC(=O)C(C(C)C)=C/C1=N/OS(=O)(=O)c1ccccc1 [STK 740987]	P. falciparum asexual blood stages (PfAS)	88.9
OC1CCCCC1C1(NC(=S)Nc2ccccc2)CCCCC1 (centres unmarked) [MMV665980]	P. falciparum asexual blood stages (PfAS)	46.0
CC(=O)C1=C(c2ccccc2)C(=O)c2ccccc2C1=O [Amb4317088]	P. falciparum asexual blood stages (PfAS)	77.6

Below: the item to evaluate.
Incoming: Would you kindly share the measured Percent rescue ± SEM by dephospho CoA, PfAS for COc1ccc2c(=O)cc(C(Cl)(Cl)Cl)oc2c1 [MMV665820] ?
Outgoing: 88.6

* * *

Test system: MCF7 cells
PROTOCOL_NOTES: Resazurin cytotoxicity assay, MCF7
Assay type: cell-based, human
CONDITION_SUMMARY: highest concentration 40 μM; bound = highest concentration with < 50 % inhibition; read-out: MCF7 cytotoxicity IC50 ± SEM
Here the recorded IC50 is given for each entry.

Worked cases, IC50 given:
MOLECULE	IC50
Cc1csc(Sc2ncnc3sccc23)n1	> 40 µM
CC(=O)C1=C(c2ccccc2)C(=O)c2ccccc2C1=O	4.6 µM
CC1=CC(=O)C(C(C)C)=C/C1=N/OS(=O)(=O)c1ccccc1	> 40 µM

Incoming: Returns the measured IC50 for the input molecule. Input: OC1CCCCC1C1(NC(=S)Nc2ccccc2)CCCCC1 (centres unmarked)
Outgoing: > 40 µM

Incoming: // query IC50 value for entry CC(=O)c1ccc2c3c(onc13)-c1ccccc1C2=O
Outgoing: 9.1 µM
